- system.name: Voltage-gated potassium channel subunit beta-2 (Rattus norvegicus)
- assay.name: enhancers of rat Kvbeta2 NADPH turnover – biochemical, NADPH fluorescence, primary screen (AID 623);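 note: fluorescence intensity change per second fitted from 20 to 320 s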
- measurement.parameters: Recombinant KvBeta, NADPH fluorescence decrease slope, 10 min; at 10 µM; stronger effect = lower value
attribute.measured: NADPH fluorescence slope
Give your answer as a number; write no unit.

Known value: Voltage-gated potassium channel subunit beta-2 (Rattus norvegicus) NADPH fluorescence slope of the compound Cc1ccc(C)c(N(CC(=O)NCc2ccco2)C(=O)CCC(=O)Nc2ccccn2)c1 equals -1.8e-05

Known value: Voltage-gated potassium channel subunit beta-2 (Rattus norvegicus) NADPH fluorescence slope of the compound CCC(C)c1ccc(NC(=O)c2cccnc2)cc1 (centres undefined) equals 3e-05

Known value: Voltage-gated potassium channel subunit beta-2 (Rattus norvegicus) NADPH fluorescence slope of the compound O=C(CC(=O)c1cc(Cl)ccc1O)c1ccccc1 equals 2.8e-05

Known value: Voltage-gated potassium channel subunit beta-2 (Rattus norvegicus) NADPH fluorescence slope of the compound CCc1nnc2c3cnn(-c4ccccc4)c3ncn12 equals 7.6e-06

Known value: Voltage-gated potassium channel subunit beta-2 (Rattus norvegicus) NADPH fluorescence slope of the compound COc1ccc2c(c1OC)C(=O)OC2CC(=O)c1ccc(O)cc1 (centres undefined) equals -4.1e-05

Known value: Voltage-gated potassium channel subunit beta-2 (Rattus norvegicus) NADPH fluorescence slope of the compound O=C(Nc1ccc2c(c1)OCCO2)C1CCCN1S(=O)(=O)c1cccc2cccnc12 (centres undefined) equals -4.4e-05

Known value: Voltage-gated potassium channel subunit beta-2 (Rattus norvegicus) NADPH fluorescence slope of the compound Cc1nnc(SCC(=O)N(C(C)C)C(C)C)nc1C equals -3.9e-05

Known value: Voltage-gated potassium channel subunit beta-2 (Rattus norvegicus) NADPH fluorescence slope of the compound COc1cccc(S(=O)(=O)Nc2ccc(C(=O)N3CCN(C(=O)c4ccco4)CC3)cc2)c1 equals -3.8e-05

Known value: Voltage-gated potassium channel subunit beta-2 (Rattus norvegicus) NADPH fluorescence slope of the compound CCC(=O)Nc1cc2nn(-c3ccccc3)nc2cc1Cl equals -5.9e-07

Known value: Voltage-gated potassium channel subunit beta-2 (Rattus norvegicus) NADPH fluorescence slope of the compound Cc1cccc(NC(=O)c2ccccc2O)c1C equals -2.8e-05

Known value: Voltage-gated potassium channel subunit beta-2 (Rattus norvegicus) NADPH fluorescence slope of the compound Cc1cc(C)c2ccc(N)nc2c1O equals -5e-05

Known value: Voltage-gated potassium channel subunit beta-2 (Rattus norvegicus) NADPH fluorescence slope of the compound c1ccc(CNc2c3c(nc4ncnn24)CCCC3)nc1 equals -9.4e-06

Known value: Voltage-gated potassium channel subunit beta-2 (Rattus norvegicus) NADPH fluorescence slope of the compound C/C(N)=C(/C#N)C(=O)CSc1nnc(Nc2cccc(C)c2)s1 equals -3.5e-05

Known value: Voltage-gated potassium channel subunit beta-2 (Rattus norvegicus) NADPH fluorescence slope of the compound CC(=O)Nc1ccc(S(=O)(=O)NCC(C)NS(=O)(=O)c2ccc(NC(C)=O)cc2)cc1 (centres undefined) equals 4.4e-05

Known value: Voltage-gated potassium channel subunit beta-2 (Rattus norvegicus) NADPH fluorescence slope of the compound N#Cc1cnc(SCCc2ccccc2)nc1N equals -5.5e-05

Known value: Voltage-gated potassium channel subunit beta-2 (Rattus norvegicus) NADPH fluorescence slope of the compound COc1ccccc1C(=O)N1CCN(C(=O)c2ccncc2)CC1 equals -1.9e-05

Known value: Voltage-gated potassium channel subunit beta-2 (Rattus norvegicus) NADPH fluorescence slope of the compound Cc1csc(NC(=O)c2ccoc2C)n1 equals 2.1e-05

Known value: Voltage-gated potassium channel subunit beta-2 (Rattus norvegicus) NADPH fluorescence slope of the compound COc1ccc(N=c2scc(-c3ccc(S(=O)(=O)N4CCOCC4)cc3)n2CCCO)cc1 equals -2.9e-05

Known value: Voltage-gated potassium channel subunit beta-2 (Rattus norvegicus) NADPH fluorescence slope of the compound O=C(Nc1ccccc1N1CCCCC1)c1ncoc1-c1ccc(F)cc1 equals 4.4e-06

Known value: Voltage-gated potassium channel subunit beta-2 (Rattus norvegicus) NADPH fluorescence slope of the compound CCS(=O)(=O)N1CCCC(C(=O)NCc2ccccc2Cl)C1 (centres undefined) equals -1.9e-05

Known value: Voltage-gated potassium channel subunit beta-2 (Rattus norvegicus) NADPH fluorescence slope of the compound CN(C)c1ccc(/C(=N\O)c2ccccc2)cc1 equals 1.6e-05

Known value: Voltage-gated potassium channel subunit beta-2 (Rattus norvegicus) NADPH fluorescence slope of the compound Cn1cccc1Cc1nnc(SCC(=O)Nc2ccccc2F)n1-c1ccc(F)cc1 equals -8.8e-05

Known value: Voltage-gated potassium channel subunit beta-2 (Rattus norvegicus) NADPH fluorescence slope of the compound COCCn1c(COc2ccc(Cl)cc2)nnc1SCC(N)=O equals -6e-05

Known value: Voltage-gated potassium channel subunit beta-2 (Rattus norvegicus) NADPH fluorescence slope of the compound CC1CC(=O)c2cnc(NCC3CCCO3)nc2C1 (centres undefined) equals -2.9e-05

Known value: Voltage-gated potassium channel subunit beta-2 (Rattus norvegicus) NADPH fluorescence slope of the compound CC(C)Cc1nnc(NC(=O)CCC(=O)N2CCOCC2)s1 equals -3.6e-05

Known value: Voltage-gated potassium channel subunit beta-2 (Rattus norvegicus) NADPH fluorescence slope of the compound Cc1cccc(Cc2c(C)nc3nc(SCC(=O)NCc4ccco4)nn3c2C)c1 equals -5.1e-07

Known value: Voltage-gated potassium channel subunit beta-2 (Rattus norvegicus) NADPH fluorescence slope of the compound CCc1nc(N)c(C#N)c(-c2ccc(OC)c(OC)c2)c1C equals 1e-05

Known value: Voltage-gated potassium channel subunit beta-2 (Rattus norvegicus) NADPH fluorescence slope of the compound CCCN1CC23C=CC(O2)C(C(=O)O)C3C1=O (centres undefined) equals -8.6e-07

Known value: Voltage-gated potassium channel subunit beta-2 (Rattus norvegicus) NADPH fluorescence slope of the compound CCOC(=O)CC1=C(C(=O)OCC)C(c2ccc(C)o2)C(C#N)=C(N)O1 (centres undefined) equals 3.1e-06

Known value: Voltage-gated potassium channel subunit beta-2 (Rattus norvegicus) NADPH fluorescence slope of the compound CC(C)C[C@H](NC(=O)Nc1cccc(C(F)(F)F)c1)C(=O)O equals 4.1e-05

Known value: Voltage-gated potassium channel subunit beta-2 (Rattus norvegicus) NADPH fluorescence slope of the compound CCOC(=O)CSC1=C(C#N)C(c2ccc(C)o2)CC(=O)N1 (centres undefined) equals -2e-05

Known value: Voltage-gated potassium channel subunit beta-2 (Rattus norvegicus) NADPH fluorescence slope of the compound CCn1c(=N)n(CC(O)c2ccco2)c2ccccc21 (centres undefined) equals -5.8e-05

Known value: Voltage-gated potassium channel subunit beta-2 (Rattus norvegicus) NADPH fluorescence slope of the compound Cc1cccc(N2C(=O)CC(N3CCN(c4cccc(C(F)(F)F)c4)CC3)C2=O)c1 (centres undefined) equals 8.5e-06

Known value: Voltage-gated potassium channel subunit beta-2 (Rattus norvegicus) NADPH fluorescence slope of the compound CN(Cc1ccco1)C(=O)Cn1c(=O)oc2cc(S(=O)(=O)NCc3ccccc3)ccc21 equals 2.5e-05

Known value: Voltage-gated potassium channel subunit beta-2 (Rattus norvegicus) NADPH fluorescence slope of the compound CCCCOCCCNC(=O)c1ccccc1OCC equals -6.3e-05

Known value: Voltage-gated potassium channel subunit beta-2 (Rattus norvegicus) NADPH fluorescence slope of the compound C=CCn1c(SCC(=O)Nc2cccc(OC)c2)nnc1-c1cccnc1 equals -9.5e-06

Known value: Voltage-gated potassium channel subunit beta-2 (Rattus norvegicus) NADPH fluorescence slope of the compound COc1cc2c(cc1OC)CN(C(=O)CSc1nc3[nH]ncc3c(=O)n1-c1ccccc1)CC2 equals -2.6e-05

Known value: Voltage-gated potassium channel subunit beta-2 (Rattus norvegicus) NADPH fluorescence slope of the compound COc1cccc(-c2nc(CS(=O)(=O)CC(=O)N3CCN(c4ccccn4)CC3)c(C)o2)c1 equals -1.1e-05

Known value: Voltage-gated potassium channel subunit beta-2 (Rattus norvegicus) NADPH fluorescence slope of the compound COC(=O)c1cccc(Oc2nc3c(c(=O)n(C)c(=O)n3C)n2C(C)C)c1 equals -3.6e-05
